Here the recorded IC50 is given for each entry.
Molecular target: human MDM4 protein (amino acids 2-185) (Homo sapiens, UniProt O15151)
Construct: human MDM4 protein (amino acids 2-185); made in house
Sequence (O15151 2-185): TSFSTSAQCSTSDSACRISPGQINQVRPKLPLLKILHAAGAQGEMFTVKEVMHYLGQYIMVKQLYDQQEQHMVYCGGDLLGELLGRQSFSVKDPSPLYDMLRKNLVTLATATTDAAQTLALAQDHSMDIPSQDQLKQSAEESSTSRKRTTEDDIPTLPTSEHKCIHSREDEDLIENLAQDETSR
Test: p53-MDM4 TR-FRET assay (p53-MDM4 Assay 1)
Type: binding
Conditions: 2.5 nM MDM4-biotinylated, 10 nM Cy5-p53 peptide; read-out: IC50 (μM) of p53-Hdm4 inhibition (TR-FRET) Assay 1
test.readout: IC50 (µM)

INSERT INTO assay_data (molecule, unit_tag, data_value) VALUES
  ('COc1cc2c(cc1OC(C)C)[C@H](c1ccc(Cl)cc1)N(c1ccc([C@](C)(O)C3CCN(C(C)=O)CC3)cc1)C(=O)C2 (single isomer, unassigned) [Example 54]', 'µM', 36.7),
  ('CC(C)Oc1cc2c(cc1OCC1COC1)CC(=O)N(c1ccc(C(C)(O)C3CCOCC3)cc1)[C@H]2c1ccc(Cl)cc1 (stereo partly drawn) [Example 147]', 'µM', 3.05),
  ('COc1cc2c(cc1OC(C)C)[C@H](c1ccc(Cl)cc1)N(c1ccc(C(C)(O)C3CC4CCC(C3)N4C3COC3)cc1)C(=O)C2 (stereo partly drawn) [Example 115]', 'µM', 5.39),
  ('COc1cc2c(cc1OC(C)C)[C@H](c1ccc(Cl)cc1)N(c1ccc(C(C)(O)C3CCN(C(=O)N(C)C)CC3)cc1)C(=O)C2 (stereo partly drawn) [Example 82]', 'µM', 2.9),
  ('COc1cc2c(cc1OC(C)C)[C@H](c1ccc(Cl)cc1)N(c1ccc(C(C)(O)C3CC4CCCC(C3)N4)cc1)C(=O)C2 (stereo partly drawn) [Example 116]', 'µM', 3.93),
  ('COc1cc2c(cc1OC(C)C)[C@H](c1ccc(Cl)cc1)N(c1ccc(C(C)(O)C3CCCCC3)cc1)C(=O)C2 (stereo partly drawn) [Example 63]', 'µM', 40.5);

----------
Biological target: human MDM4 protein (amino acids 2-185) (Homo sapiens, UniProt O15151)
Construct: human MDM4 protein (amino acids 2-185); made in house
Sequence (O15151 2-185): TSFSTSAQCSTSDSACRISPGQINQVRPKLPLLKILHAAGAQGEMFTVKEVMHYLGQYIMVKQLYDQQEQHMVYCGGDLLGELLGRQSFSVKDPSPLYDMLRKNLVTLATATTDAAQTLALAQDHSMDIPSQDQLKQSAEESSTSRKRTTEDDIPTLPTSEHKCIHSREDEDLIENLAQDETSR
Assay: p53-MDM4 TR-FRET assay (p53-MDM4 Assay 1)
Type: binding
Details: 2.5 nM MDM4-biotinylated, 10 nM Cy5-p53 peptide; read-out: IC50 (μM) of p53-Hdm4 inhibition (TR-FRET) Assay 1
Threshold check on IC50: strictly below 6 µM is Criterion met; on or above 6 µM is Criterion not met.

INSERT INTO results (compound, category_label) VALUES
  ('COc1cc2c(cc1OC(C)C)[C@H](c1ccc(Cl)cc1)N(c1ccc(C3(O)CCC3)cc1)C(=O)C2 [Example 51]', 'Criterion not met'),
  ('COc1cc2c(cc1OC(C)C)[C@H](c1ccc(Cl)cc1)N(c1ccc([C@@](C)(O)C3CCOCC3)cc1)C(=O)C2 (single isomer, unassigned) [Example 32]', 'Criterion met'),
  ('COc1cc2c(cc1OC(C)C)[C@H](c1ccc(Cl)cc1)N(c1ccc(C(C)(O)C3CC4CCC(C3)N4C(=O)N(C)C)cc1)C(=O)C2 (stereo partly drawn) [Example 108]', 'Criterion met'),
  ('COc1cc2c(cc1OC(C)C)[C@H](c1ccc(Cl)cc1)N(c1ccc(C(C)(O)c3ccncc3)cn1)C(=O)C2 (stereo partly drawn) [Example 12]', 'Criterion not met'),
  ('CCC(C)(O)c1ccc(N2C(=O)Cc3cc(OC)c(OC(C)C)cc3[C@@H]2c2ccc(Cl)cc2)cc1 (stereo partly drawn) [Example 3]', 'Criterion not met'),
  ('COc1cc2c(cc1OC(C)C)[C@H](c1ccc(Cl)cc1)N(c1ccc(C(C)(O)C3CC(C)(C)OC(C)(C)C3)cc1)C(=O)C2 (stereo partly drawn) [Example 162]', 'Criterion met');
